FYI, the data here is from ChEMBL document CHEMBL3286218.

biological target: Glutamate NMDA receptor; Grin1/Grin2a (Rattus norvegicus) (UniProt P35439+Q00959); assay: Inhibition of rat recombinant GluN1/2A expressed in Xenopus oocytes assessed as inhibition of glutamate/glycine-evoked channel current at 100 nM at holding potential of -80 mV by two-electrode voltage clamp technique; format: cell-based
Task for the reader: assign each of the following compounds its reported inhibition.

| chemicalString | parameter | observedMeasurement |
| --- | --- | --- |
| C[N+](C)(CCCC[C@H](N)C(=O)NCCCCCNC(=O)[C@H](CC(N)=O)NC(=O)Cc1c[nH]c2cccc(O)c12)CCCNC(=O)[C@@H](N)CCCNC(=N)N | inhibition | < 20% |
| CN(CCCC[C@H](N)C(=O)NCCCCCNC(=O)[C@H](CC(N)=O)NC(=O)Cc1c[nH]c2ccccc12)CCCNC(=O)[C@@H](N)CCCNC(=N)N | inhibition | < 20% |

// for each compound in input: emit inhibition
1. NCCCNCCCCNCCCNCCCN(O)CCCNC(=O)Cc1c[nH]c2ccccc12
2. NCCCNCCCCNCCCNCCCNCCCNC(=O)Cc1c[nH]c2ccccc12
3. NCCCNCCCCNCCCNCCCNCCCNC(=O)Cc1ccc(O)cc1O
4. NCCCNCCCCNCCCNCCCN(O)CCCNC(=O)Cc1c[nH]c2cccc(O)c12
5. C[N+](C)(CCCC[C@H](N)C(=O)NCCCCCNC(=O)[C@H](CC(N)=O)NC(=O)Cc1c[nH]c2ccccc12)CCCNC(=O)[C@@H](N)CCCNC(=N)N
6. NCCCNCCCCNCCCNCCCNCCCNC(=O)Cc1c[nH]c2cccc(O)c12

["> 90%", "> 90%", "> 90%", "> 90%", "< 20%", "> 90%"]
